molecular target: Tubulin; assay: Inhibition of tubulin polymerization
measured-parameter: IC50

Some solved cases for reference:
CC(=O)Oc1ccc2nc(/C=C/c3ccccc3)nc(O)c2c1; 4 µM
Oc1nc(/C=C/c2ccccc2)nc2ccc3ncccc3c12; > 40 µM
COc1ccc2nc(/C=C/c3ccccc3)[nH]c(=O)c2c1; 2 µM
Oc1nc(/C=C/c2ccccc2)nc2sccc12; > 40 µM
O=c1c2cc(Cl)ccc2nc2n1NC(c1ccccc1)C2 (configuration not stated); > 40 µM

Give me IC50 for each of these compounds, listed below.
1. Cc1cccc2nc(/C=C/c3ccccc3)nc(O)c12
2. CCOc1ccc2nc(/C=C/c3ccccc3)nc(O)c2c1

Result ::
["> 40 µM", "> 40 µM"]

Give me IC50 for each of these compounds, listed below.
1. Oc1nc(/C=C/c2ccccc2)nc2ccc(Br)cc12
2. O=c1oc(/C=C/c2ccccc2)nc2c(O)nc(O)nc12

Result ::
2 µM
> 40 µM

Give me IC50 for each of these compounds, listed below.
1. Cc1ccc2nc(/C=C/c3ccccc3)nc(O)c2c1
2. Oc1nc(/C=C/c2ccccn2)nc2ccc(Cl)cc12
3. Oc1nc(C#Cc2ccccc2)nc2ccc(Cl)cc12

Result ::
2 µM
> 40 µM
> 40 µM

The measured values listed here are drawn from ChEMBL document CHEMBL1125102.
